- system under test: HCV NS5B (Hepatitis C virus genotype 1b, UniProt Q9WMX2)
- Construct: The protein was expressed with an 18 amino acid C-terminal truncation to enhance the solubility; made in house; host or cells: E. coli BL21 (DE3), pET21a
- Sequence (Q9WMX2 2420-2992): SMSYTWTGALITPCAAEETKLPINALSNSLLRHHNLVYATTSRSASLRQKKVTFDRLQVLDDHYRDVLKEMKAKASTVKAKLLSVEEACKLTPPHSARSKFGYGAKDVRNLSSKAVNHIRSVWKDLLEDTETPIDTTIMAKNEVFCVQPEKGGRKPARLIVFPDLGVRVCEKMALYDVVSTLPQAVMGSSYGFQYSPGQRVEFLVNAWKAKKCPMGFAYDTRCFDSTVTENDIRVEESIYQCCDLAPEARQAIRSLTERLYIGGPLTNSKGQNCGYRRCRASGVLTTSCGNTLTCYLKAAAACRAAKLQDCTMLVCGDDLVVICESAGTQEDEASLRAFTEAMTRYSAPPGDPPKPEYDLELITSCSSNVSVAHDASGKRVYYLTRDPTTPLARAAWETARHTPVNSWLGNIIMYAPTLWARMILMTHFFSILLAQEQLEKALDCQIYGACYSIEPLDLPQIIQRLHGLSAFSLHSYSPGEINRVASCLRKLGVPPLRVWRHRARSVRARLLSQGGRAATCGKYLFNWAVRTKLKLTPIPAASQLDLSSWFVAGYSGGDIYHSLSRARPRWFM
- protocol summary: HCV NS5B RdRp enzyme assay (preincubation protocol)
- Assay type: biochemical
- recorded conditions: Table 1, read-out: IC50*
IC50 values by entry

CN(C)S(=O)(=O)NC(=O)c1ccc2c(C3CCCCC3)c3n(c2c1)CC(C(=O)N1CCS(=O)(=O)CC1)=Cc1ccccc1-3
10 to 1000 nM

Param item = O=C(NS(=O)(=O)N1CCOCC1)c1ccc2c(C3CCCCC3)c3n(c2c1)CC(C(=O)N1CCC(N2CCOCC2)CC1)=Cc1ccccc1-3 ; retrieve measured IC50.
10 to 1000 nM

Would you mind doing CN(C)S(=O)(=O)NC(=O)c1ccc2c(C3CCCCC3)c3n(c2c1)CC(C(=O)N1CCN(S(C)(=O)=O)CC1)=Cc1ccccc1-3 as well?
10 to 1000 nM

Here is the next molecule: COC(=O)c1ccc2c(C3CCCCC3)c3n(c2c1)CC(C(=O)N1CCC(N2CCCC(F)C2)CC1)=Cc1ccccc1-3 (stereo not shown)
> 1000 nM

// next record CN(C)S(=O)(=O)NC(=O)c1ccc2c(C3CCCCC3)c3n(c2c1)CC(C(=O)N1CCN(S(=O)(=O)c2ccccc2)CC1)=Cc1ccccc1-3
10 to 1000 nM

Moving on to the next molecule: CN1CCCC(CN(C)C(=O)C2=Cc3ccccc3-c3c(C4CCCCC4)c4ccc(C(=O)NS(=O)(=O)N(C)C)cc4n3C2)C1 (stereo not shown)
10 to 1000 nM

Then O=C(O)c1ccc2c(C3CCCCC3)c3n(c2c1)CC(C(=O)N1CCN(c2ncccn2)CC1)=Cc1ccccc1-3 ?
10 to 1000 nM
